System: B16 (malignant melanoma)
Test: In vitro proliferation assay, B16
Type: cell-based, murine
Details: Mus musculus
PROPERTY_MEASURED: EC50 (nM)

- COMPOUND: "C=C1/C(=C\\C=C2/CCCC3(C)[C@@H]([C@H](C)CCCC(C)(C)O)CC[C@@H]23)C[C@@H](O)CC1O (stereo partly shown) [1,25 D3, 1,25-Dihydroxyvitamin D3]"
  PROPERTY_MEASURED: "EC50"
  QUANTITY_UNIT: "nM"
  REPORTED: 15
